Entry source: patent US8642622B2

Test: Protein binding, rabbit
Format: in vitro ADME
MEASURE: fraction unbound

> print(dat)
                                   compound           measure  quantitative.result
1  CC(C)[C@@H](NC(=O)[C@@H]1CCC(F)(F)C1)C(=O)N1CC[C@](O)(c2ccc(Cl)cc2)[C@@](C)(O)C1 [Compound I]  fraction unbound                 0.46

###

Experiment: Single-dose pharmacokinetics in rats
Type: in vivo
Conditions: male, Sprague-Dawley, rat, plasma, po, crystalline suspension in aqueous medium, read-out: Relative bioavailability when dosed as a crystalline suspension
Listed below: bioavailability values for each entry.
MEASURE: bioavailability (%)

> print(dat)
                                   compound  measurement.qualifier  quantitative.result
1  CC(C)[C@@H](NC(=O)c1cccc(S(N)(=O)=O)c1)C(=O)N1CC[C@](O)(c2ccc(Cl)cc2)C(C)(C)C1 [Example 491]                      =                    0
2  CC(C)[C@@H](NC(=O)[C@@H]1CC[C@@H](O)C1)C(=O)N1CC[C@](O)(c2ccc(Cl)cc2)C(C)(C)C1 [Example 572]                      >                   90
3  CC(C)[C@@H](NC(=O)[C@@H]1CCC(F)(F)C1)C(=O)N1CC[C@](O)(c2ccc(Cl)cc2)[C@@](C)(O)C1 [Compound I]                      =                   84

###

Molecular target: CCR1 (Homo sapiens)
Construct: THP-1 monocytic leukemia cells are combined with 100 μg of LS WGA PS beads; endogenous in cells
Sequence (P32246 1-355): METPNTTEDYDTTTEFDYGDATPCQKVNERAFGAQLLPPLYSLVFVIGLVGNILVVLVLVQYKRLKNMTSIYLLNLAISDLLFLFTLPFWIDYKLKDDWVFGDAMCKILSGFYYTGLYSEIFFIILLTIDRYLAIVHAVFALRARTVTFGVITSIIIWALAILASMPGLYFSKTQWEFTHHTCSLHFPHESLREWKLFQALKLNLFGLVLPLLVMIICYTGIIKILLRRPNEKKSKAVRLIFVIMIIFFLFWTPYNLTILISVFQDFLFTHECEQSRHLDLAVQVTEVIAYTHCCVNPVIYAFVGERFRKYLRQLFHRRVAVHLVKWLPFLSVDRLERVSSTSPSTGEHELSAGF
Test: Human CCR1 THP-1 binding assay ([125I]MIP-1α competition)
Conditions: THP-1 cells
Protocol: For radioligand competition studies, a final concentration of 1×10^5 THP-1 monocytic leukemia cells are combined with 100 μg of LS WGA PS beads (Amersham, Cat.#: RPNQ 0260) in 40 μL of assay buffer (RPMI 1640 without phenol red, 50 mM HEPES, 5 mM MgCl2, 1 mM CaCl2, 0.1% BSA). […] Sealed assay plates were incubated at room temperature for 12 h then analyzed by LEADseeker™. […]
Listed below: Ki values for each entry.
MEASURE: Ki

> print(dat)
                                smiles.text  result
1  CC(C)[C@@H](NC(=O)[C@@H]1CCC(F)(F)C1)C(=O)N1CC[C@](O)(c2ccc(Cl)cc2)[C@@](C)(O)C1  1.6 nM
2  CC(C)COC(=O)N[C@@H](C(=O)N1CC[C@](O)(c2ccc(Cl)cc2)C(C)(C)C1)C(C)C  2.6 nM
